target: r(CGG)12-DGCR8Δ complex; assay: TR-FRET protein displacement assay; details: read-out: IC50 for disruption of the r(CGG)12-DGCR8Δ complex; TR-FRET assay
RECORDED_METRIC: IC50 (µM)
The answer is to be given in µM; state only the numeric part.

[ask] Form field: reported IC50 of Cc1c2cc[n+](CCN3CCCCC3)cc2c(C)c2c1[nH]c1ccc(O)cc12
[reply] 13

====

target: RNA containing one 5’CGG/3’GGC motif (1x1 nucleotide GG internal loop); assay: RNA-binding assay via Hoechst 33258 dye displacement; conditions: competition with Hoechst 33258 (1 µM), RNA 1 µM
RECORDED_METRIC: Kd (nM)
The answer is to be given in nM; state only the numeric part.

[ask] Form field: reported Kd of Cc1c2cc[n+](CCN3CCCCC3)cc2c(C)c2c1[nH]c1ccc(O)cc12
[reply] 76

Data provenance is paper PMC3477254.
